Tested on: zymostenol accumulation (EBP) in EpiSC-derived OPCs
Experiment: GC/MS-based sterol profiling, zymostenol accumulation in EpiSC-derived OPCs
Assay type: cell-based, mouse
Conditions: Mus musculus, 24 h, EpiSC-derived OPCs, 24 hr, 8 doses from 0.15 nM to 333 nM; read-out: Mouse Zymostenol GCMS EC50
Protocol: To assess effects of treatments on OPCs, all treatments were assayed in two or more independent platings of epiblast stem cell-derived OPCs (EpiSC). […] Sterols were monitored using a modified Folch wash protocol (Hubler et al, 2018, Nature). […] After derivatization, 2 μl were analyzed by gas chromatography/mass spectrometry using an Agilent 5973 Network Mass Selective Detector equipped with a 6890 gas chromatograph system and a HP-5MS capillary column (30 m×0.25 mm×0.25 mm). […]
OBSERVED_PROPERTY: pEC50
Answers are plain numbers, as −log10 of the molar value.

Known results for molecules:
- MOLECULE: "CC[C@H]1CN([C@H]2CC[C@@H](c3nc(-c4cnc(C(F)(F)F)nc4)nn3C(C)C)C2)CCO1 [Compound 154]"
  OBSERVED_PROPERTY: "pEC50"
  REPORTED_VALUE: 6.66
- MOLECULE: "CC(C)n1nc(-c2cncc(Cl)c2)cc1[C@H]1[C@@H]2C[C@@H](N3CCCOCC3)C[C@@H]21 [Compound 177*]"
  OBSERVED_PROPERTY: "pEC50"
  REPORTED_VALUE: 8.38
- MOLECULE: "CC(C)n1nc(-c2cnc(C(F)(F)F)nc2)nc1[C@@H]1CC[C@@H](N2CCO[C@@H](C)C2)C1 [Compound 151]"
  OBSERVED_PROPERTY: "pEC50"
  REPORTED_VALUE: 6.89
- MOLECULE: "CC(C)n1nc(-c2ccnc(C(F)(F)F)n2)cc1[C@H]1[C@@H]2C[C@@H](N3CCOC[C@@H]3C)C[C@@H]21 [Compound 100]"
  OBSERVED_PROPERTY: "pEC50"
  REPORTED_VALUE: 8.22
- MOLECULE: "CC(C)n1nc(-c2cncc(C(F)(F)F)c2)cc1[C@@H]1CC[C@@H](N2CCCOCC2)C1 (single isomer, unassigned) [65*]"
  OBSERVED_PROPERTY: "pEC50"
  REPORTED_VALUE: 7.79

Please give pEC50, item by item, for the list that follows.
1. CC(C)n1nc(-c2ccc(C#N)cc2)cc1[C@H]1[C@@H]2C[C@@H](N3CCCOCC3)C[C@@H]21 [Compound 180*]
2. CC(C)n1nc(-c2cnc(C(F)(F)F)nc2)cc1[C@H]1CC[C@H](N2CCO[C@H](CF)C2)C1 (single isomer, unassigned) [Compound 132*]
3. CCn1nc(-c2ccc(C(F)(F)F)nc2)nc1[C@H]1CC[C@@H](N2CCCOCC2)CC1 [7*]

a:
1: 7.61; 2: 6.45; 3: 7.58

Please give pEC50, item by item, for the list that follows.
1. CC(C)n1nc(-c2cc(C(F)(F)F)ncn2)cc1[C@H]1[C@@H]2C[C@H](N3CCOC[C@H]3C)C[C@@H]21 [Compound 106]
2. CC(C)n1nc(-c2cccc(C(F)(F)F)n2)nc1[C@H]1[C@@H]2C[C@H](N3CCOC[C@H]3C)C[C@@H]21 [Compound 73]

a:
[8.41, 8.40]

Please give pEC50, item by item, for the list that follows.
1. CC(C)n1nc(-c2cncc(F)c2)cc1[C@H]1[C@@H]2C[C@H](N3CCCOCC3)C[C@@H]21 [Compound 187*]
2. CC(C)n1nc(-c2cncc(OC(F)F)c2)nc1[C@H]1[C@@H]2C[C@H](N3CCCOCC3)C[C@@H]21 [Compound 69]
3. CC(C)n1nc(-c2cnc(C(F)(F)F)nc2)cc1[C@H]1[C@@H]2C[C@H](N3CCOCC3)C[C@@H]21 [Compound 203]
4. CC(C)n1nc(-c2cccc(OC(F)(F)F)c2)nc1[C@H]1[C@@H]2C[C@H](N3CCCOCC3)C[C@@H]21 [Compound 17]
5. CC(C)n1nc(-c2cccc(C(F)(F)F)c2)nc1[C@@H]1CC[C@@H](N2CCOCC2)C1 (single isomer, unassigned) [21*]
6. CC(C)n1nc(-c2cncc(C(F)(F)F)c2)nc1[C@H]1CC[C@H](N2CCOCC2)C1 (single isomer, unassigned) [Compound 116*]
7. CC(C)n1nc(-c2cccc(OC(F)(F)F)c2)cc1[C@H]1[C@@H]2C[C@@H](N3CCCOCC3)C[C@@H]21 [Compound 190*]
8. CC(C)n1nc(-c2cccc(C(F)(F)F)n2)cc1[C@H]1[C@@H]2C[C@@H](N3CCN(C4CCC4)CC3)C[C@@H]21 [Compound 84]

a:
1: 8.11; 2: 8.09; 3: 7.67; 4: 8.76; 5: 8.11; 6: 7.31; 7: 7.96; 8: 8.46

Please give pEC50, item by item, for the list that follows.
1. CC(C)n1nc(-c2ccc(OC(F)F)cc2)cc1[C@H]1[C@@H]2C[C@H](N3CCCOCC3)C[C@@H]21 (single isomer, unassigned) [Compound 201*]
2. CC(C)n1nc(-c2cc(C(F)(F)F)ncn2)cc1[C@H]1[C@@H]2C[C@@H](N3CCOC[C@H]3C)C[C@@H]21 [Compound 202]
3. COCCN1CCN([C@H]2CC[C@@H](c3nc(-c4ccc(C(F)(F)F)nc4)nn3C(C)C)C2)CC1 [Compound 83]
4. CC(C)n1nc(-c2ccnc(C(F)(F)F)n2)cc1[C@H]1[C@@H]2C[C@H](N3CCOC[C@@H]3C)C[C@@H]21 [Compound 101]
5. CC(C)n1nc(-c2ccc(C#N)cc2)cc1[C@H]1[C@@H]2C[C@H](N3CCCOCC3)C[C@@H]21 [Compound 179*]
6. CC[C@@H]1CN([C@@H]2CC[C@H](c3nc(-c4cncc(Cl)c4)nn3C(C)C)C2)CCO1 [Compound 129]

a:
1. 8.08
2. 8.32
3. 7.90
4. 8.96
5. 9.02
6. 8.55
